System: Escherichia coli TOP10;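 further: peptides expressed intracellularly from a pBAD plasmid library in pooled LB shake-flask culture, induced with 0.3% L-arabinose, DNA abundance read by NGS, three biological replicates, DESeq2 with apeglm shrinkage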
protocol_summary: shrunken log2 fold change of peptide-encoding DNA abundance (4.5 h post-induction vs induction); higher = less antimicrobial activity (less host growth inhibition)
conditions: time post-induction: 4.5 h; library: site-saturation at positions 5, 18, 19, 20
metric: shrunken log2 fold change
Number, no unit, nothing else.

(Q) Reported shrunken log2 fold change for `RRIRPRPPRLPRPRPRPQRHPRP` : what is it?
(A) -0.14

(Q) Reported shrunken log2 fold change for `RRIRFRPPRLPRPRPRPSMTPRP` : what is it?
(A) -0.227

(Q) Reported shrunken log2 fold change for `RRIRIRPPRLPRPRPRPRQYPRP` : what is it?
(A) -0.258

(Q) Reported shrunken log2 fold change for `RRIRLRPPRLPRPRPRPWTMPRP` : what is it?
(A) -0.202

(Q) Reported shrunken log2 fold change for `RRIRPRPPRLPRPRPRPWFAPRP` : what is it?
(A) -0.116

(Q) Reported shrunken log2 fold change for `RRIRGRPPRLPRPRPRPCQVPRP` : what is it?
(A) 0.224

(Q) Reported shrunken log2 fold change for `RRIRNRPPRLPRPRPRPGYPPRP` : what is it?
(A) 0.0226

(Q) Reported shrunken log2 fold change for `RRIRARPPRLPRPRPRPQLKPRP` : what is it?
(A) 0.237

(Q) Reported shrunken log2 fold change for `RRIRPRPPRLPRPRPRPFFNPRP` : what is it?
(A) -0.365

(Q) Reported shrunken log2 fold change for `RRIRQRPPRLPRPRPRPWSKPRP` : what is it?
(A) 0.00202

(Q) Reported shrunken log2 fold change for `RRIRTRPPRLPRPRPRPSFFPRP` : what is it?
(A) -0.256

(Q) Reported shrunken log2 fold change for `RRIRTRPPRLPRPRPRPYVEPRP` : what is it?
(A) -1.12

(Q) Reported shrunken log2 fold change for `RRIRVRPPRLPRPRPRPPWRPRP` : what is it?
(A) 0.57

(Q) Reported shrunken log2 fold change for `RRIRCRPPRLPRPRPRPDKMPRP` : what is it?
(A) -0.156

(Q) Reported shrunken log2 fold change for `RRIRCRPPRLPRPRPRPAQWPRP` : what is it?
(A) 0.696

(Q) Reported shrunken log2 fold change for `RRIRRRPPRLPRPRPRPKQRPRP` : what is it?
(A) 0.288

(Q) Reported shrunken log2 fold change for `RRIRERPPRLPRPRPRPGSFPRP` : what is it?
(A) 0.0492

(Q) Reported shrunken log2 fold change for `RRIRNRPPRLPRPRPRPDWPPRP` : what is it?
(A) 0.0862

(Q) Reported shrunken log2 fold change for `RRIRMRPPRLPRPRPRPIQKPRP` : what is it?
(A) 0.0394

(Q) Reported shrunken log2 fold change for `RRIRLRPPRLPRPRPRPFSDPRP` : what is it?
(A) 0.0391

(Q) Reported shrunken log2 fold change for `RRIRDRPPRLPRPRPRPHKFPRP` : what is it?
(A) -0.122

(Q) Reported shrunken log2 fold change for `RRIRDRPPRLPRPRPRPCQHPRP` : what is it?
(A) -0.276

(Q) Reported shrunken log2 fold change for `RRIRLRPPRLPRPRPRPPHFPRP` : what is it?
(A) 0.437

(Q) Reported shrunken log2 fold change for `RRIRVRPPRLPRPRPRPTLKPRP` : what is it?
(A) 0.151

(Q) Reported shrunken log2 fold change for `RRIRSRPPRLPRPRPRPERVPRP` : what is it?
(A) 0.21

(Q) Reported shrunken log2 fold change for `RRIRDRPPRLPRPRPRPCDHPRP` : what is it?
(A) -0.0216

(Q) Reported shrunken log2 fold change for `RRIRARPPRLPRPRPRPVHLPRP` : what is it?
(A) 0.215

(Q) Reported shrunken log2 fold change for `RRIRTRPPRLPRPRPRPFEKPRP` : what is it?
(A) -0.0979

(Q) Reported shrunken log2 fold change for `RRIRYRPPRLPRPRPRPLGHPRP` : what is it?
(A) 0.0209

(Q) Reported shrunken log2 fold change for `RRIRLRPPRLPRPRPRPTQVPRP` : what is it?
(A) 0.452

(Q) Reported shrunken log2 fold change for `RRIRSRPPRLPRPRPRPSHMPRP` : what is it?
(A) -0.993

(Q) Reported shrunken log2 fold change for `RRIRYRPPRLPRPRPRPKKRPRP` : what is it?
(A) -0.11
